assay-details: Microsomal clearance assay (M)
assay-context: intrinsic clearance in rat liver microsomes
Counter-ions that a name gives are not always drawn.
measurement-name: Assay M RLM CI(int) (µL/min/mg)

I = Cc1ccc(S(=O)(=O)NC[C@@H]2CCNC2)cc1-c1cnc(N)c(-n2cncn2)n1 [Example 127.57, trifluoroacetic acid salt]
II = Cc1ccc(S(=O)(=O)NCCC(F)(F)F)cc1-c1cnc(N)c(-n2cncn2)n1
Compare the recorded Assay M RLM CI(int) of I and II ; state which is larger. Bench note: the answer is the label of the chosen record. II
(II: 192 µL/min/mg, I: 21 µL/min/mg)

###

target: PI 3-kinase alpha (Homo sapiens, UniProt P42336)
Sequence (P42336 whole entry): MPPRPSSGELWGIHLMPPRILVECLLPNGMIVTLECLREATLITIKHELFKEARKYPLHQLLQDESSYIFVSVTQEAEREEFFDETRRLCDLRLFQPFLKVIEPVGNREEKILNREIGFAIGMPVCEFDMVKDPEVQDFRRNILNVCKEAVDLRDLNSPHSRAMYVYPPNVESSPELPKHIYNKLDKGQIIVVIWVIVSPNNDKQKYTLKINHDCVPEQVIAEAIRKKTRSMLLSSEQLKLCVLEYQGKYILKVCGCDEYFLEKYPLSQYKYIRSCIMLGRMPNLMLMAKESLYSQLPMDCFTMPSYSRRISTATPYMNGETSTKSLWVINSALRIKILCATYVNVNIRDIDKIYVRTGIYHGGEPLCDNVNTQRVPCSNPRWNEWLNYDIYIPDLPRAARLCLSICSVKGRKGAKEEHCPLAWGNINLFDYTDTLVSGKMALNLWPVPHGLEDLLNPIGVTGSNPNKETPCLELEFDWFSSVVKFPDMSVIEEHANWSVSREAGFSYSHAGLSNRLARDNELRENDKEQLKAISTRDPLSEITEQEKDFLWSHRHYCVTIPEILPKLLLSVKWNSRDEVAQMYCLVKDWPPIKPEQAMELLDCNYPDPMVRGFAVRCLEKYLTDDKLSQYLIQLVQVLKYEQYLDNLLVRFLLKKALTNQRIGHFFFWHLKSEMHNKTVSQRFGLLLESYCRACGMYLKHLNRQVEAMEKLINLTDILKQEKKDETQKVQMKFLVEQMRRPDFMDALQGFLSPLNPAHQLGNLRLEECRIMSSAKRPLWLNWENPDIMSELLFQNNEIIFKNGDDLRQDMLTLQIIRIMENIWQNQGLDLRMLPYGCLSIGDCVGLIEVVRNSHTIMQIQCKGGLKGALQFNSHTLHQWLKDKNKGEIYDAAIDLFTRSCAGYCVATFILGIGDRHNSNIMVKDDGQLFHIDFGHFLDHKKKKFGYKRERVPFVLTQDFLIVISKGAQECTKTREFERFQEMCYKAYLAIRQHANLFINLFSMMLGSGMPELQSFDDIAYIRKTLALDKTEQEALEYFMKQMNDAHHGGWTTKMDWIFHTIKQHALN
assay-details: Kinase Glo Luminescent Kinase Assay (Kglo), assay A
Type: biochemical
assay-context: read-out: Assay A PI3Kα IC50
pIC50: −log10 of the molar value.
measurement-name: pIC50

Here's what some known entries look like.
INSERT INTO results (molecule, target, measurement_name, meas_value) VALUES
  ('Cc1noc(-c2nc(-c3cc(S(=O)(=O)NC[C@H]4C[C@@H](O)C4)ccc3C)cnc2N)n1', 'PI 3-kinase alpha (Homo sapiens, UniProt P42336)', 'pIC50', 6.26),
  ('Cc1ccc(S(=O)(=O)N[C@H]2CC[C@@](C)(O)CC2)cc1-c1cnc(N)c(-n2cncn2)n1 [Example 69b]', 'PI 3-kinase alpha (Homo sapiens, UniProt P42336)', 'pIC50', 6.41),
  ('Cc1ncc(-c2nc(-c3cc(S(=O)(=O)NC4CC(O)C4)ccc3C)cnc2N)s1 (mixture of isomers)', 'PI 3-kinase alpha (Homo sapiens, UniProt P42336)', 'pIC50', 7.30),
  ('Cc1ccc(S(=O)(=O)NCC2(C(N)=O)CC2)cc1-c1cnc(N)c(-n2cncn2)n1', 'PI 3-kinase alpha (Homo sapiens, UniProt P42336)', 'pIC50', 6.38);

A = Cc1ccc(S(=O)(=O)NCC2(C)COC2)cc1-c1cnc(N)c(-n2cncn2)n1
B = Cc1ccc(S(=O)(=O)NCCC(C)(C)O)cc1-c1cnc(N)c(-c2cccnc2)n1
C = Cc1ccc(S(=O)(=O)NCC(C)(C)O)cc1-c1cnc(N)c(-c2cn(C)nn2)n1
Sort ascending by pIC50. Please, when replying, give the labels in the order that was requested. C, A, B

Where do these numbers come from? They come from patent US10004732B2.
